Documented % Change Compared to pH 7.4 + Calcium across a set of binders
- measurement.target: T1, recombinant, soluble human ASGR-1 (human, UniProt P07306 62-291)
- T1 construct: biotinylated in the binning assay; also called soluble huASGR-1; Soluble ASGR-1 (Amgen)
- T1 sequence: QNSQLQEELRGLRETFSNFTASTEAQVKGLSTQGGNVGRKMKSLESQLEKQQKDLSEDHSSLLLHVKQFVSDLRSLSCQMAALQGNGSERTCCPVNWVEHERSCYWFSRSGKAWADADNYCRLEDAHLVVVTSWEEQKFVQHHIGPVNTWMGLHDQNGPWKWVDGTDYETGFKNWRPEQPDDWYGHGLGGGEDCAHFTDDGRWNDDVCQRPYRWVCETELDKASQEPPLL
- method.summary: Octet BLI dissociation, pH 5.6 plus calcium
# number only, unit % dropped from output

// solved cases for % Change Compared to pH 7.4 + Calcium follow
binder | endpoint.value
191A10 (antibody, V domains shown, hybridoma mAb) VH: QVQLVESGGGVVQPGRSLRLSCAASGFTFSSYGMHWVRQAPGKGLEWVAVIWYDGSNKNYADSVKGRFTISRDNSKNTLYLQMNSLRAEDTAMYYCARDQGVGYDGLDVWGQGTSVTVSS VL: DIQMTQSPSSLSASVGDRVTITCRASQGIGKYLAWFQQKPGKAPKSLIYAASSLQSGVPSKFSGSGYGTDFTLTISSLQPENFAIYYCQQYSTYPLTFGGGTKVEIK | -5
60D2 (antibody, V domains shown, hybridoma mAb) VH: EVQLVESGGGLVQPGGSLRLSCGASGFTFSSYSMNWVRQAPGKGLEWVSYISESSNIIYYTDSVKGRFTISRDNAMNSLYLQMNSLRDEDTAVYYCARADTPMVLYFYGMDVWGQGTTVTVSS VL: SYELTQPPSVSVSPGQTASITCSGNKLGDKYASWYQQRPGQSPVLVIYQDNKRPSGIPERFSGSNSGNTATLTISGTQTMDEADYYCQAWDNNTVVFGGGTKLTVL | 42

Now for a further binder.
Value of measured % Change Compared to pH 7.4 + Calcium for the entry 52H2 (antibody, V domains shown, hybridoma mAb) VH: EVQLLESGGGLVQPGGSLRLSCAASGFTFSRNAMSWVRQAPGMGLEWVSAISGRGGNTFYADSVKGRFTVSRDNSKNTLFLQMNSLRAEDTAVYYCAKNGREQWLDYWGQGTLVTVSS VL: DIQMTQSPSSVSASVGDRVTITCRASQNITNWLAWFQQKPGRAPKLLIYTTSSLQSGVPSRFSGSGSGTDFTLTISSLQPEDFATYCCQQTNSFPWTFGHGTKVEVK : 11
